Listed here are compounds together with their documented pIC50.
# Test system: Trypanosoma cruzi
# Experiment notes: Antitrypanosomal activity against Trypanosoma cruzi trypomastigotes
# Assay type: functional, organism-based
pIC50: −log10 of the molar value.
Assay readout: pIC50

chemical_structure=Cn1c([N+](=O)[O-])cnc1-c1c(-c2ccccc2)nc(-c2ccc(Br)cc2)n1O measured_value=4.62
chemical_structure=O=C(N[C@@H](Cn1ccnc1)c1ccc(Cl)cc1Cl)c1ccc(-c2nnc(-c3ccccc3)o2)cc1 measured_value=4.96

* * *

Listed here are molecules together with their documented IC50.
# Test system: Cruzipain (Trypanosoma cruzi)
# Sequence (P25779 whole entry): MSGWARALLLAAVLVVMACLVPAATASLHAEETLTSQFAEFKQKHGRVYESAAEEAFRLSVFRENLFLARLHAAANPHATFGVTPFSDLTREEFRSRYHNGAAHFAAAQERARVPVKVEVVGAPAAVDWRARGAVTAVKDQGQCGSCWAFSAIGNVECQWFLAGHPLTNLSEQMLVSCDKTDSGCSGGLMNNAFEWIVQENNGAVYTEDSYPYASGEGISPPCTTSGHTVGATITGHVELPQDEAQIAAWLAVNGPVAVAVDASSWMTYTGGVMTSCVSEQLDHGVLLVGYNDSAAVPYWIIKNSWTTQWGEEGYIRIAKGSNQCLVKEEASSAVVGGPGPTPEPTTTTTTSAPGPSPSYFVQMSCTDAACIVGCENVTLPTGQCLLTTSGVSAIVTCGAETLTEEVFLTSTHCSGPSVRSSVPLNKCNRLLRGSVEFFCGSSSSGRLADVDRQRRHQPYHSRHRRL
# Experiment notes: Inhibition of Trypanosoma cruzi Cruzain
Assay readout: IC50 (nM)

chemical_structure=Cc1ccc(OCCn2c(CCNC(=O)C3CCCCC3)nc3ccccc32)cc1 test_system="Cruzipain (Trypanosoma cruzi)" measured_value=2000
chemical_structure=Cc1ccc2[nH]c(CCNC(=O)COc3ccc4ccccc4c3Br)nc2c1 test_system="Cruzipain (Trypanosoma cruzi)" measured_value=610
chemical_structure=O=C(COc1ccc2ccccc2c1Br)NCCc1nc2cc(Cl)ccc2[nH]1 test_system="Cruzipain (Trypanosoma cruzi)" measured_value=590
chemical_structure=Cc1ccccc1OCC(=O)NCCc1nc2ccccc2[nH]1 test_system="Cruzipain (Trypanosoma cruzi)" measured_value=1600
